B1: DLC1 (parent)
chain: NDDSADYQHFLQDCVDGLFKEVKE

- Variants of: B1
- protocol.details: protein stability index of a GFP-peptide fusion (GPS, HEK-293T) (PSI 1-6); higher = more stable;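 also: lentivirally expressed fusions sorted by FACS into six bins by GFP to DsRed ratio, PSI derived from sequencing read proportions per bin multiplied by bin number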
- condition.label: c terminus: a fixed tail appended
Exercise: for every item that follows, state its recorded protein stability index.

Illustrative cases are given below, each with its answer.
1. L11E: 5.25
2. D13H: 1.51
3. A5R: 2.49
4. F19A: 5.02
5. F19G: 5.54
6. H9F: 2.32
7. D2H: 2.66
8. Q12E: 4.75

Could you tell me protein stability index for each of these variants? They are listed below.
1. N1R
2. E24R
3. L18I

-- reply
1: 2.53; 2: 2.01; 3: 3.73
